Here the recorded pEC50 is given for each entry.
Tested on: HBV
PROTOCOL_DETAILS: Anti-viral assay in HepG2.2.15 cells: anti-HBV activity, HBV DNA in culture medium by qPCR
Assay type: cell-based
TEST_CONDITIONS: Hepatitis B virus, HepG2.2.15, 144 h, HepG2.2.15 cells, 6 days treatment, HBV DNA by qPCR; read-out: EC50
Procedure: HepG2.2.15 (the HepG2.2.15 cell line can be produced by transfection of the HepG2 cell line as described in Sells, Chen, and Acs 1987 (Proc. Natl. Acad. Sci. USA 84: 1005-1009), and the HepG2 cell line is available from ATCC® under number HB-8065™) […] The change of HBV DNA level induced by the compounds was assessed by quantitative real-time polymerase chain reaction (qPCR). […] EC50 and CC50 values are calculated by the […] […]
# reply with the number alone; pEC50 is -log10 of concentration in mol/L

Answered examples (4):
- COMPOUND: "CCOC(=O)C1=C(CN2CCN3C(=S)N(CC(C)(C)C(=O)O)CC3C2)NC(c2ncoc2C)=NC1c1cccc(F)c1C (single isomer, unassigned) [Compound 26A]"
  pEC50: 7.88
- COMPOUND: "CCOC(=O)C1=C(CN2CCN3C(=S)N(CC(C)(C)C(=O)O)C[C@@H]3C2)NC(c2nccs2)=N[C@H]1c1ccc(F)cc1Cl (single isomer, unassigned) [Compound 21A]"
  pEC50: 8.22
- COMPOUND: "COC(=O)C1=C(CN2CCN3C(=S)N(CC(C)(C)C(=O)O)C[C@@H]3C2)NC(c2nccs2)=N[C@@H]1c1ccc(F)cc1Br (single isomer, unassigned) [Compound 16A]"
  pEC50: 8.35
- COMPOUND: "CCOC(=O)C1=C(CN2CCN3C(=NC#N)N(CC(C)(C)C(=O)O)CC3C2)NC(c2nccs2)=N[C@H]1c1cccc(F)c1C (stereo partly drawn)"
  pEC50: 7.31

GET /values?readout=pEC50&system=HBV&item= COC(=O)C1=C(CN2CCN3C(=S)N(CC(C)(C)C(=O)O)CC3C2)NC(c2nccs2)=NC1c1ccc(F)c(F)c1Cl (single isomer, unassigned) [Compound 11A] 8.72

Param readout = pEC50; param system = HBV; param query = CCOC(=O)C1=C(CN2CCN3C(=S)N(CC(C)(C)C(=O)O)CC3C2)NC(c2nccs2)=NC1c1ccc(F)c(F)c1Cl (stereo not drawn) [Compound 14] ; response: value 8.23

====

PROTOCOL_DETAILS: Metabolic stability of test compound in human hepatocyte cell
Format: in vitro ADME
TEST_CONDITIONS: cryopreserved human hepatocytes (suspension); human hepatocytes, 1.0 μM, 0-120 min; read-out: T½
Readings of half-life at 1 uM for the listed molecules
Kindly answer with a numeric value in h, unit omitted.

Field: example entries. Status: answers known.
- MOLECULE: "CCOC(=O)C1=C(CN2CCN3C(=S)N(CC(C)(C)C(=O)O)CC3C2)NC(c2nccs2)=N[C@H]1c1cccc(F)c1C (single isomer, unassigned)"
  MEASUREMENT_UNITS: "h"
  half-life at 1 uM: 3.82
- MOLECULE: "CCOC(=O)C1=C(CN2CCN3C(=O)N(CC(C)(C)C(=O)O)C[C@@H]3C2)NC(c2nccs2)=N[C@H]1c1cccc(F)c1C [Reference 2, reference compound]"
  MEASUREMENT_UNITS: "h"
  half-life at 1 uM: 2.45

Reported half-life at 1 uM, molecule CCOC(=O)C1=C(CN2CCN3C(=S)N(CC(C)(C)C(=O)O)CC3C2)NC(c2nccs2)=NC1c1cccc(F)c1Cl (single isomer, unassigned) : ____ 2.91

====

Below, each of the compounds is paired with its reported PO AUCinf/Dose value.
PROTOCOL_DETAILS: Pharmacokinetic and tissue distribution study via intravenous and oral administration in male C57BL/6 mice
Type: in vivo
TEST_CONDITIONS: mice plasma, PO
Write it as a number; the unit ng·kg·h/mg/mL goes unstated.

Example compounds with recorded PO AUCinf/Dose:
- COMPOUND: "CCOC(=O)C1=C(CN2CCN3C(=O)N(CC(C)(C)C(=O)O)C[C@@H]3C2)NC(c2nccs2)=N[C@H]1c1cccc(F)c1C [Reference 2, reference compound]"
  PO AUCinf/Dose, ng·kg·h/mg/mL: 181.5
- COMPOUND: "CCOC(=O)C1=C(CN2CCN3C(=S)N(CC(C)(C)C(=O)O)CC3C2)NC(c2nccs2)=NC1c1cccc(F)c1Cl (single isomer, unassigned)"
  PO AUCinf/Dose, ng·kg·h/mg/mL: 1049.3
- COMPOUND: "CCOC(=O)C1=C(CN2CCN3C(=S)N(CC(C)(C)C(=O)O)CC3C2)NC(c2nccs2)=N[C@H]1c1cccc(F)c1C (single isomer, unassigned)"
  PO AUCinf/Dose, ng·kg·h/mg/mL: 784.8

# context switch: different compound, same PO AUCinf/Dose
Look at this compound and give its reported PO AUCinf/Dose. CCOC(=O)C1=C(CN2CCOCC2)NC(c2nccs2)=NC1c1ccc(F)cc1Br (stereo not shown) [Reference 1, GLS4, reference compound] 17.3

====

The entries below are paired with their reported EC50.
System: HBV
PROTOCOL_DETAILS: Anti-viral assay in HepG2.2.15 cells: anti-HBV activity, HBV DNA in culture medium by qPCR
Format: cell-based
TEST_CONDITIONS: Hepatitis B virus, HepG2.2.15, 144 h, HepG2.2.15 cells, 6 days treatment, HBV DNA by qPCR; read-out: EC50
Answer with a number only, understood to be in nM.

Consider the following illustrative entries.
- COMPOUND: "CCOC(=O)C1=C(CN2CCN3C(=S)N(CC(C)(C)C(=O)O)C[C@@H]3C2)NC(c2nccs2)=N[C@@H]1c1ccc(F)c(F)c1C (single isomer, unassigned) [Compound 15A]"
  TARGET_UNDER_TEST: "HBV"
  EC50 (nM): 4.6
- COMPOUND: "COC(=O)C1=C(CN2CCN3C(=S)N(CC(C)(C)C(=O)O)C[C@@H]3C2)NC(c2ncoc2C)=N[C@H]1c1ccc(F)cc1Cl (single isomer, unassigned) [Compound 34A]"
  TARGET_UNDER_TEST: "HBV"
  EC50 (nM): 7.9

Now for the compound whose EC50 we want.
Look up EC50 for this compound: CCOC(=O)C1=C(CN2CCN3C(=S)N(c4ccc(C(=O)O)cc4)CC3C2)NC(c2nccs2)=N[C@H]1c1cccc(F)c1C (stereo in doubt) 4.6

====

Tested on: HBV
PROTOCOL_DETAILS: Anti-viral assay in HepG2.2.15 cells: anti-HBV activity, HBV DNA in culture medium by qPCR
Type: cell-based
TEST_CONDITIONS: HepG2.2.15 cells, 6 days treatment, HBV DNA by qPCR; read-out: EC50
PARAMETER: pEC50
# log scale: pEC50 equals minus log10 of the concentration in mol/L

- COMPOUND: "CCOC(=O)C1=C(CN2CCN3C(=S)N([C@H]4CC[C@@H](C(=O)O)C4)CC3C2)NC(c2nccs2)=N[C@H]1c1cccc(F)c1C (single isomer, unassigned) [Compound 24D]"
  NUMBER: 7.46
- COMPOUND: "COC(=O)C1=C(CN2CCN3C(=S)N(CC(C)(C)C(=O)O)CC3C2)NC(c2nccs2)=NC1c1ccc(F)cc1Cl (single isomer, unassigned) [Compound 4A]"
  NUMBER: 7.31
- COMPOUND: "CCOC(=O)C1=C(CN2CCN3C(=S)N(CC(C)(C)C(=O)O)CC3C2)NC(c2nccs2)=NC1c1cccc(F)c1Cl (single isomer, unassigned) [Compound 3A]"
  NUMBER: 7.72
- COMPOUND: "CCOC(=O)C1=C(CN2CCN3C(=S)N([C@@H]4CC[C@H](C(=O)O)C4)CC3C2)NC(c2nccs2)=N[C@H]1c1cccc(F)c1C (single isomer, unassigned) [Compound 24A]"
  NUMBER: 7.41

We now examine a further compound.
Provide the documented pEC50 with HBV as the system for CCOC(=O)C1=C(CN2CCN3C(=S)N(CC4(C(=O)O)CC4)CC3C2)NC(c2nccs2)=N[C@H]1c1cccc(F)c1C (single isomer, unassigned) [Compound 9A] 7.19

====

PROTOCOL_DETAILS: Pharmacokinetic and tissue distribution study via intravenous and oral administration in male C57BL/6 mice
Format: in vivo
TEST_CONDITIONS: male, C57BL/6, mouse, liver and plasma, po, mice, PO; read-out: Cmax Ratio (Liver/Plasma)
PARAMETER: Kp
Enter a number only.

Consider the reported Kp for these compounds:
- COMPOUND: "CCOC(=O)C1=C(CN2CCN3C(=S)N(CC(C)(C)C(=O)O)CC3C2)NC(c2nccs2)=N[C@H]1c1cccc(F)c1C (single isomer, unassigned) [Compound 1A]"
  Kp: 14
- COMPOUND: "CCOC(=O)C1=C(CN2CCN3C(=S)N(CC(C)(C)C(=O)O)CC3C2)NC(c2nccs2)=NC1c1cccc(F)c1Cl (single isomer, unassigned) [Compound 3B]"
  Kp: 15.3

Consider the additional compound presented here.
What does the record list as Kp for CCOC(=O)C1=C(CN2CCN3C(=O)N(CC(C)(C)C(=O)O)C[C@@H]3C2)NC(c2nccs2)=N[C@H]1c1cccc(F)c1C [Reference 2, reference compound] ? 12.2
